Numbers sourced from ChEMBL document CHEMBL4825669.

Target: UniProt:P21554
Experiment: Binding affinity to human CB1 receptor assessed as free binding energy
Assay type: cell-based
Conditions: CHO, filed as antagonist
measured.parameter: deltaG (°C)
Write it as a number; the unit °C goes unstated.

[ask] Any idea what its deltaG is? The compound is C#CCCCn1c(C)c(C(=O)c2ccc3c(c2)CC(C)(C)C3)c2ccccc21
[reply] -7.85

[ask] Same question for C=CCCCn1cc(C(=O)c2ccc3c(c2)CC(C)(C)C3)c2ccccc21 please.
[reply] -9.36

[ask] Try this compound too: C#CCCCn1cc(C(=O)c2ccc3c(c2)CC(C)(C)C3)c2ccccc21
[reply] -8.91

* * *

Overview of reported deltaG across a group of compounds:
Biological target: Cannabinoid receptor 2 (Homo sapiens)
Sequence (P34972 whole entry): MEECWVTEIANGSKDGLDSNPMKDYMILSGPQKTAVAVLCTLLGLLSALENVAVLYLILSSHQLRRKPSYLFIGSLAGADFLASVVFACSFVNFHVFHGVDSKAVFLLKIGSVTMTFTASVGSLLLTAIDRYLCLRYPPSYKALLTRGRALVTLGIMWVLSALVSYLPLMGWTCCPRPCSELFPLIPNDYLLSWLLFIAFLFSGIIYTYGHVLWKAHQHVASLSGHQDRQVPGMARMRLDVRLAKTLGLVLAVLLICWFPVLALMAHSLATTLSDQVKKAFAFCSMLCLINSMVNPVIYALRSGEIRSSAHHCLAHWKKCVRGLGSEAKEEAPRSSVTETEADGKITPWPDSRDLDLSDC
Assay: Binding affinity to human CB2 receptor assessed as free binding energy
Format: cell-based
Details: CHO, filed as antagonist
# value in kcal/mol; strip the unit string

Some entries whose results are on file:
| query.smiles | target.under.test | unit.name | deltaG |
| --- | --- | --- | --- |
| CCCn1cc(C(=O)c2ccc3c(c2)CC(C)(C)C3)c2ccccc21 | Cannabinoid receptor 2 (Homo sapiens) | kcal/mol | -9.45 |
| CCCCCn1cc(C(=O)c2cccc3c2CC(C)(C)C3)c2ccccc21 | Cannabinoid receptor 2 (Homo sapiens) | kcal/mol | -12.2 |

Now consider a different compound.
[ask] Could you tell me which deltaG is on file for CCCCCn1cc(C(=O)c2ccc3c(c2)CC(C)(C)C3)c2ccccc21 ?
[reply] -11.5

* * *

Molecular target: Cannabinoid receptor 1 (Homo sapiens, UniProt P21554)
Sequence (P21554 whole entry): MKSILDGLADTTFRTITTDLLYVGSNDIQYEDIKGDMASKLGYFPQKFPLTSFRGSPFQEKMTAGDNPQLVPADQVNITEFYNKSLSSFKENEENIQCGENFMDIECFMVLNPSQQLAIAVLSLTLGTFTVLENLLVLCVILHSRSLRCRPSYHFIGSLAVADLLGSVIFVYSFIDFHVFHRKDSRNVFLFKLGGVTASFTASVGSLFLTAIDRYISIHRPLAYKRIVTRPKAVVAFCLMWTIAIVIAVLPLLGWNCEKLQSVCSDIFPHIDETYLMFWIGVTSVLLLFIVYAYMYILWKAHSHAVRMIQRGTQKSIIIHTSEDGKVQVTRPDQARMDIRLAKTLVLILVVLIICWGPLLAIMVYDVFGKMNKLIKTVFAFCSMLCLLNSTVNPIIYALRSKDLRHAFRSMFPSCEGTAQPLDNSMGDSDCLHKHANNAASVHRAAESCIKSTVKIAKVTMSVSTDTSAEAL
Experiment: Displacement of [3H]-CP55940 from human CB1 receptor expressed in CHO cells at 1 uM incubated for 90 mins by liquid scintillation spectrophotometry relative to control
Assay type: cell-based
# Activity annotations
Note: unit % is implicit; provide only the numeric part.

| query.smiles | reported.value |
| --- | --- |
| Cn1cc(C(=O)c2ccc3c(c2)CC(C)(C)C3)c2ccccc21 | 10.8 |
| CCCCCCn1c(C)c(C(=O)c2ccc3c(c2)CC(C)(C)C3)c2ccccc21 | 26.2 |

Let us examine a further case.
[ask] Record request: Activity value, item Cc1c(C(=O)c2ccc3c(c2)CC(C)(C)C3)c2ccccc2n1Cc1ccccc1
[reply] 18.1

* * *

Target: Cannabinoid receptor 2 (Homo sapiens)
Test: Displacement of [3H]-CP55940 from human CB2 receptor expressed in CHO cells at 1 uM incubated for 90 mins by liquid scintillation spectrophotometry relative to control
Assay type: cell-based
measured.parameter: Activity
I'd appreciate it if you included the unit after the number.

| query.smiles | Activity |
| --- | --- |
| Cc1c(C(=O)c2ccc3c(c2)CC(C)(C)C3)c2ccccc2n1Cc1ccc(F)cc1 | 48.8% |
| CC1(C)Cc2ccc(C(=O)c3c[nH]c4ccccc34)cc2C1 | 22.2% |
| CCC#CCn1c(C)c(C(=O)c2ccc3c(c2)CC(C)(C)C3)c2ccccc21 | 30.2% |

[ask] For the compound shown here, Cn1cc(C(=O)c2ccc3c(c2)CC(C)(C)C3)c2ccccc21 , give the reported Activity.
[reply] 23.9%
